Can you tell me inhibition for the items I'm about to list?
experiment: PhoP regulon inhibitors, Salmonella typhi PhoP promoter GFP reporter, confirmatory (AID 1850);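 note: 0% = induced wells with vehicle and 100% = uninduced wells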
condition_context: fluorescence, 4 h, at 50 µM, stronger effect = higher value
In all, about 310,000 compounds went through this assay and about 1,000 (0.32%) were called active. These entries were drawn from the full list. Potency and affinity values are given separately.
One number for each entry, in %.

{"compound": "NC(=O)c1ccc(SCC(=O)OCC(=O)NCc2ccco2)c([N+](=O)[O-])c1", "inhibition [%]": -1.63}
{"compound": "Cc1ccc(Cn2c(=N)c(C(=O)NC3CCCC3)cc3c(=O)n4ccccc4nc32)cc1", "inhibition [%]": -16.4}
{"compound": "CN1CCN(c2nc(C#N)cc(-c3ccccc3)n2)CC1", "inhibition [%]": 6.67}

For every listed record, write down its inhibition.
1. FC(F)(F)c1cc(CCN2C(=S)NC[C@@H]2CC2CCCCC2)cc(C(F)(F)F)c1
2. Cc1ccc2sc(N(CCCN(C)C)C(=O)c3nc4ccccc4s3)nc2c1C
3. Cc1ccc2nc(N(CCCN(C)C)C(=O)c3ccc(Br)s3)sc2c1
4. CC(C)(C)c1ccc(CS(=O)(=O)CC2(O)CCN(C(=O)c3cccc(C(F)(F)F)c3)CC2)cc1
5. O=[N+]([O-])c1ccc(Cl)c2cccnc12
6. CCCC[C@@H]1CN=C(N)N1CCc1cc(C(F)(F)F)cc(C(F)(F)F)c1

1. -1.84
2. 11.1
3. 4.27
4. -0.12
5. -13
6. 11.5

inhibition for COc1ccccc1S(=O)(=O)CC(O)COc1ccccc1Cl (stereo not given) ?
-5.18

====

Can you tell me inhibition for the items I'm about to list?
experiment: PhoP regulon inhibitors, Salmonella typhi PhoP promoter GFP reporter, confirmatory (AID 1850);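 note: 0% = induced wells with vehicle and 100% = uninduced wells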
condition_context: fluorescence, 4 h, at 50 µM, stronger effect = higher value
The campaign covered roughly 310,000 compounds. About 1,000 (0.32%) were called active. Not all results are given here. Measured potencies and affinities stand elsewhere.
Answers are plain numbers, in %.

The examples below pair each entry with its known result.
{"molecule": "C#CCOCCOCCOCCNc1nc(N2CCN(C(=O)CCCCCCCCCCNC(=O)[C@H](CCCCN)n3cc(C)nn3)CC2)nc(N2CCN(C(=O)CCCCCCCCCCNC(=O)[C@H](CCCCN)n3cc(CCCC(=O)O)nn3)CC2)n1", "inhibition (%)": -29.8}
{"molecule": "C#CCOCCOCCOCCNc1nc(N2CCN(C(=O)CCCCCCCCCCNC(=O)[C@H](CCCCN)n3cc(C[C@@H](C)CC)nn3)CC2)nc(N2CCN(C(=O)CCCCCCCCCCNC(=O)[C@@H]([C@H](C)O)n3cc(C)nn3)CC2)n1", "inhibition (%)": 51.8}
{"molecule": "C#CCOCCOCCOCCNc1nc(N2CCN(C(=O)CCCCCCCCCCNC(=O)[C@@H](CCSC)n3cc(CCO)nn3)CC2)nc(N2CCN(C(=O)CCCCCCCCCCNC(=O)[C@H](CCCN=C(N)N)n3cc(C[C@@H](C)CC)nn3)CC2)n1", "inhibition (%)": -10.5}

For every listed record, write down its inhibition.
1. C#CCOCCOCCOCCNc1nc(N2CCN(C(=O)CCCCCCCCCCNC(=O)[C@H](CCCCN)n3cc(CCCC(=O)O)nn3)CC2)nc(N2CCN(C(=O)CCCCCCCCCCNC(=O)[C@H](CCCN=C(N)N)n3cc(C[C@@H](C)CC)nn3)CC2)n1
2. Nc1nc(SCC(=O)Nc2ccccc2Sc2ccccc2)n[nH]1
3. CCOC(=O)n1cc(-c2cnc(CNC(=O)C(C)(c3ccccc3)c3ccccc3)o2)c2ccccc21

[13.7, -1.42, -3.78]

====

experiment: PhoP regulon inhibitors, Salmonella typhi PhoP promoter GFP reporter, confirmatory (AID 1850);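 note: 0% = induced wells with vehicle and 100% = uninduced wells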
condition_context: fluorescence, 4 h, at 50 µM, stronger effect = higher value
In all, about 310,000 compounds went through this assay and about 1,000 (0.32%) were called active. These entries were drawn from the full list. Results with a measured potency or affinity are listed apart.
Can you tell me inhibition for the items I'm about to list?
Give bare numbers, in %.

For every listed record, write down its inhibition.
1. CC1=NNC(=O)/C1=C\c1cn(-c2ccccc2)nc1-c1ccccc1
2. O=C(N/N=C/c1cc2ccccc2[nH]1)c1ccccc1Cl
3. CCC1CCCCN1C(=O)c1cc(COc2ccc(-n3cncn3)cc2)on1 (stereo unspecified)
4. COc1cc(C(=O)NCC(=O)N/N=C(\C)Cc2ccccc2)cc(OC)c1OC
5. O=C(COc1ccccc1C(=O)c1cnn(-c2ccccc2)c1)Nc1ccccc1

10.4
12.6
-7.8
8.05
-4.89

====

Can you tell me inhibition for the items I'm about to list?
experiment: PhoP regulon inhibitors, Salmonella typhi PhoP promoter GFP reporter, confirmatory (AID 1850);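 note: 0% = induced wells with vehicle and 100% = uninduced wells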
condition_context: fluorescence, 4 h, at 50 µM, stronger effect = higher value
Among all 310,000 compounds or so, about 1,000 (0.32%) were called active. Not all results are given here. Measured potencies and affinities stand elsewhere.
Numbers only, in %.

The examples below pair each entry with its known result.
{"molecule": "Cc1ccc(OCCC(=O)Nc2ccc(S(=O)(=O)Nc3cc(C)nc(C)n3)cc2)cc1", "inhibition, %": -3.66}
{"molecule": "CCOC(=O)N1CCN(CCC(=O)c2ccc(OC)cc2)CC1", "inhibition, %": 19.1}
{"molecule": "COc1ccc(Cn2cc(F)c(=O)n(C)c2=O)cc1[N+](=O)[O-]", "inhibition, %": 4.35}
{"molecule": "Cc1cc(=O)oc2cc(OCc3ccc(S(=O)(=O)N4CCOCC4)cc3)ccc12", "inhibition, %": -0.96}
{"molecule": "CCOC(=O)N1CCN(CCC(=O)Nc2ccc(Br)cc2)CC1", "inhibition, %": -11.9}

Turning now to a further record.
inhibition for `CCN(CC)CCNC(=O)CNC(=O)c1nn(-c2ccc(OC)c(OC)c2)c(=O)c2ccccc12` ?
-2.16

====

Can you tell me inhibition for the items I'm about to list?
experiment: PhoP regulon inhibitors, Salmonella typhi PhoP promoter GFP reporter, confirmatory (AID 1850);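 note: 0% = induced wells with vehicle and 100% = uninduced wells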
condition_context: fluorescence, 4 h, at 50 µM, stronger effect = higher value
Among all 310,000 compounds or so, about 1,000 (0.32%) were called active. Only a sample is shown. Measured potencies and affinities stand elsewhere.
Numbers only, in %.

The examples below pair each entry with its known result.
{"compound": "Cc1ccccc1Nc1nc(Nc2ccccc2C)nc(SC2=NCCS2)n1", "measurement_name": "inhibition", "endpoint_value": 5.86}
{"compound": "Cc1ccc(NC(=O)C2CCCN(S(=O)(=O)c3cccs3)C2)cc1 (stereo unspecified)", "measurement_name": "inhibition", "endpoint_value": 3.27}
{"compound": "COCC(=O)NNC(=O)Cc1ccc(Cl)cc1", "measurement_name": "inhibition", "endpoint_value": -2.72}

For every listed record, write down its inhibition.
1. O=C(Nc1ccccc1)c1ccc(OC(=O)c2cc3ccccc3o2)cc1
2. O=C(O)CCC(=O)Nc1nc2nccc(-c3ccccc3)n2n1

1: 1.84; 2: -7.87

For every listed record, write down its inhibition.
1. Cc1ccc(C(=O)N2N=C(c3cccc(NS(C)(=O)=O)c3)CC2c2cccs2)cc1 (stereo unspecified)
2. CCCC(=O)Nc1c2c(nn1-c1ccc(F)cc1)CS(=O)(=O)C2
3. CC(C)(C)OC(=O)NCc1ccc(CNC(=O)c2[nH]cnc2C(=O)N[C@@H](Cc2ccccc2)C(=O)OC(C)(C)C)cc1
4. COC(=O)c1ccc(CNC(=O)COC(=O)Cc2ccsc2)cc1

[-10.1, -3.29, -19.7, 8.65]

For every listed record, write down its inhibition.
1. COc1ccc(OC(=O)c2cc3ccccc3o2)cc1
2. CC(C)CN=CC1=C(O)c2ccccc2C1=O

1. 3.29
2. 5.42

====

Can you tell me inhibition for the items I'm about to list?
experiment: PhoP regulon inhibitors, Salmonella typhi PhoP promoter GFP reporter, confirmatory (AID 1850);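 note: 0% = induced wells with vehicle and 100% = uninduced wells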
condition_context: fluorescence, 4 h, at 50 µM, stronger effect = higher value
About 1,000 (0.32%) of roughly 310,000 compounds were called active. Not all results are given here. Potency and affinity values are given separately.

The examples below pair each entry with its known result.
{"compound": "CN1CCN(C(=O)c2ccc(CS(=O)Cc3ccc(Cl)cc3)o2)CC1 (stereo unspecified)", "measurement_name": "inhibition", "endpoint_value": "-3.59% (inactive)"}
{"compound": "CCN(CC)S(=O)(=O)c1ccc(C)c(NC(=O)COc2ccc3c(C)cc(=O)oc3c2)c1", "measurement_name": "inhibition", "endpoint_value": "-6.3% (inactive)"}

For every listed record, write down its inhibition.
1. COc1ccc(NS(=O)(=O)c2cccc(NC(=O)NCCCl)c2)cc1
2. O=c1[nH]c(=S)[nH]c(O)c1N=Nc1ccc2c(c1)OCO2
3. O=C(OCc1ccc(COC(=O)c2cccnc2Cl)cc1)c1cccnc1Cl
4. CCc1ccc(NC(=S)Nn2cnnc2)cc1

["-19.5% (inactive)", "-4.29% (inactive)", "-8.94% (inactive)", "3.78% (inactive)"]

For every listed record, write down its inhibition.
1. COc1ccc(N2C(N)=NC(N)=NC2(C)C)cc1
2. CCOc1ccc(N2C(N)=NC(N)=NC2(C)C)cc1
3. Cc1cccc2cc(CN(C(=O)c3cccc([N+](=O)[O-])c3)C(C)C)c(=O)[nH]c12
4. COc1ccc2cc(C(=O)C3CCCN(C(=O)c4cnccn4)C3)ccc2c1 (stereo unspecified)
5. NC(=O)Cn1c(=O)n(CC(=O)N2CCCCC2)c(=O)c2sccc21

2.39% (inactive)
-0.23% (inactive)
-4.34% (inactive)
8.69% (inactive)
2.84% (inactive)
